Just for reference, patent US10414774B2 is where these values come from.

Biological target: Human CYP8B1 (Homo sapiens)
Sequence (Q9UNU6 1-501): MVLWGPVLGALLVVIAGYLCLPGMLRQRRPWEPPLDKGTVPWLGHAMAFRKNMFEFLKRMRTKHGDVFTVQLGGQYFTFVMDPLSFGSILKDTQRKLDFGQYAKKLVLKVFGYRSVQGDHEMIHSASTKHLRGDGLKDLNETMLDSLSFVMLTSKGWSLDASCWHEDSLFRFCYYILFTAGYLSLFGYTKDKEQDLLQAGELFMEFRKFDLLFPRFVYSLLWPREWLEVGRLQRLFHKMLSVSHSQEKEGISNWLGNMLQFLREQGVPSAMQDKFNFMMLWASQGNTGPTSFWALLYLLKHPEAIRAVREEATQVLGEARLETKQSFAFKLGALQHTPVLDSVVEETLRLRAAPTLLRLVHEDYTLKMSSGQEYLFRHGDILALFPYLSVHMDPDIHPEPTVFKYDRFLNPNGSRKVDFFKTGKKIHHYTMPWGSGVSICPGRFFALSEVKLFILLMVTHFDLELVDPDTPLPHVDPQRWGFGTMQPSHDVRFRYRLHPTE
Assay: Human CYP8B1 Liver Microsome Assay
Conditions: Human CYP8B1 IC50, human liver microsomes; substrate 7a-hydroxy-4-cholesten-3-one, NADPH; RapidFire MS detection of 7α,12α-dihydroxy-4-cholesten-3-one
pIC50: −log10 of the molar value.
endpoint: pIC50

Worked examples follow.
compound: N#Cc1cnc2ccc(Cl)cc2c1N1CCC(C(=O)N2CCn3c(nnc3C(F)(F)F)C2)C(C(F)(F)F)C1 (centres unmarked)
target-or-system: Human CYP8B1 (Homo sapiens)
pIC50: 8.68

compound: Cc1nc2ccc(Cl)cc2c(N2CC[C@H](C(=O)N3CCc4sc(C(F)(F)F)nc4C3)[C@H](C)C2)c1C#N
target-or-system: Human CYP8B1 (Homo sapiens)
pIC50: 7.72

compound: CC(C)Oc1ccc2c(N3CC[C@H](C(=O)N4CCn5c(nnc5C(F)(F)F)C4)[C@H](C)C3)c(C#N)cnc2c1
target-or-system: Human CYP8B1 (Homo sapiens)
pIC50: 9.52

compound: CC(C)COc1ccc2c(N3CCC(C(=O)N4CCn5c(nnc5C(F)(F)F)C4)CC3)c(C#N)cnc2c1
target-or-system: Human CYP8B1 (Homo sapiens)
pIC50: 9.38

[1] CC1(C)CN(C(=O)C2CCN(c3c(C#N)cnc4ccc(Cl)cc34)CC2)Cc2nnc(C(F)(F)F)n21
[2] Cc1nc2ccc(Br)cc2c(N2CCC(C(=O)N3CCn4c(nnc4C(F)(F)F)C3)CC2)c1C#N
[3] Cc1nc2c(F)cc(F)cc2c(N2CCC(C(=O)N3CCn4c(nnc4C(F)(F)F)C3)CC2)c1C#N
[4] CC[C@@H]1CN(c2c(C#N)cnc3c(F)c(OC)ccc23)CC[C@@H]1C(=O)N1CCn2c(nnc2C(F)(F)F)C1 [Example 74b]
[5] COc1ccc2c(N3CC[C@H](C(=O)N4CCn5c(nnc5C(F)F)C4)[C@H](C)C3)c(C#N)cnc2c1
Q: List by increasing pIC50. A ranking is expressed here by listing the labels in the requested order.
Ans: 3, 1, 2, 4, 5
(3: 5.76, 1: 6.43, 2: 6.96, 4: 8.68, 5: 9.06)

* * *

molecular target: Human CYP8B1 (Homo sapiens, UniProt Q9UNU6); test: Human CYP8B1 Liver Microsome Assay; details: Human CYP8B1 IC50, human liver microsomes; substrate 7a-hydroxy-4-cholesten-3-one, NADPH; RapidFire MS detection of 7α,12α-dihydroxy-4-cholesten-3-one
pIC50: −log10 of the molar value.
endpoint: pIC50

Sample answers from the record:
molecule: COc1cc(Cl)cc2c(N3CC[C@H](C(=O)N4CCn5c(nnc5C(F)(F)F)C4)[C@H](C)C3)c(C#N)cnc12
target-or-system: Human CYP8B1 (Homo sapiens, UniProt Q9UNU6)
pIC50: 9.28
--
molecule: Cc1nc2ccc(Cl)cc2c(N2CC[C@H](C(=O)N3CCc4n[nH]c(C(F)(F)F)c4C3)[C@H](C)C2)c1C#N
target-or-system: Human CYP8B1 (Homo sapiens, UniProt Q9UNU6)
pIC50: 7.46
--
molecule: N#Cc1cnc2ccc(Cl)cc2c1N1CC[C@@]2(C(=O)N3CCn4c(nnc4C(F)(F)F)C3)C[C@H]2C1 (single isomer, unassigned) [Example 81b]
target-or-system: Human CYP8B1 (Homo sapiens, UniProt Q9UNU6)
pIC50: 5.72

[P] N#Cc1cnc2ccc(Cl)cc2c1C1CCC(C(=O)N2CCn3c(nnc3C(F)(F)F)C2)CC1 (mixture of isomers)
[Q] COc1ccc2nc(C)c(C#N)c(N3CC[C@H](C(=O)N4CCn5c(nnc5C(F)(F)F)C4)[C@H](C)C3)c2c1
Q: Hey, between P and Q which has a smaller measured pIC50? Select an item and report its label.
Ans: P

[I] C[C@@H]1CN(c2c(C#N)c(Cl)nc3ccc(Cl)cc23)CC[C@@H]1C(=O)N1CCn2c(nnc2C(F)(F)F)C1
[II] C[C@@H]1CN(c2c(C#N)cnc3c(F)c(C4CC4)ccc23)CC[C@@H]1C(=O)N1CCn2c(nnc2C(F)(F)F)C1
Q: // pick larger pIC50 from pair: I vs II Provide the label of your selected option as the answer.
Ans: II
(II: 9.05, I: 8.82)

[A] Cc1nc2ccc(F)cc2c(N2CCC(C(=O)N3CCn4c(nnc4C(F)(F)F)C3)CC2)c1C#N
[B] N#Cc1cnc2cc(OCC3CC3)ccc2c1N1CCC(C(=O)N2CCn3c(nnc3C(F)(F)F)C2)CC1
Q: Could you tell me which of these two has the smaller pIC50 figure? First: A Second: B Write down the label of the entry you select.
Ans: A

* * *

Biological target: Human CYP8B1 (Homo sapiens, UniProt Q9UNU6)
Sequence (Q9UNU6 1-501): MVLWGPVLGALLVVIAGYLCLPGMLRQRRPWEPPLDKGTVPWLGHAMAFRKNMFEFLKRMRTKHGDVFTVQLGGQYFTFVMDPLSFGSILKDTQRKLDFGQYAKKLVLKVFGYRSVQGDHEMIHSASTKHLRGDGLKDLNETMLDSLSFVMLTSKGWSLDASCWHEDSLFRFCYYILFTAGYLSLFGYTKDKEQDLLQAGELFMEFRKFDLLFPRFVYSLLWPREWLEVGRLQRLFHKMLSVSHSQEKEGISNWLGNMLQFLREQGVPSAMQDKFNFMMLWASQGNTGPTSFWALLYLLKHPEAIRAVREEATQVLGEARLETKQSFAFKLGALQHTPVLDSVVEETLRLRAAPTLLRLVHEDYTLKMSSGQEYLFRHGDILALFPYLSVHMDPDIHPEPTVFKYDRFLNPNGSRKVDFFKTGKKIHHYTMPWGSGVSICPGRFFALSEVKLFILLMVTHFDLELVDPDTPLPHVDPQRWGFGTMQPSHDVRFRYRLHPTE
Test: Human CYP8B1 Liver Microsome Assay
Settings: Human CYP8B1 IC50, human liver microsomes; substrate 7a-hydroxy-4-cholesten-3-one, NADPH; RapidFire MS detection of 7α,12α-dihydroxy-4-cholesten-3-one
endpoint: IC50 (nM)

compound: C[C@@H]1CN(c2c(C#N)cnc3c(Cl)c(F)ccc23)CC[C@@H]1C(=O)N1CCn2c(nnc2C(F)(F)F)C1 [Example 13]
IC50, nM: 3.3

compound: CC1CN(C(=O)C2CCN(c3c(C#N)cnc4ccc(Cl)cc34)CC2)Cc2nnc(C(F)(F)F)n21 (centres unmarked) [Example 112]
IC50, nM: 69.7

compound: C=Cc1ccc2nc(C)c(C#N)c(N3CCC(C(=O)N4CCn5c(nnc5C(F)(F)F)C4)CC3)c2c1 [Example 54]
IC50, nM: 149

[A] CCOc1ccc2c(N3CC[C@H](C(=O)N4CCn5c(nnc5C(F)(F)F)C4)[C@H](C)C3)c(C#N)cnc2c1 [Example 39]
[B] CC1CC(C(=O)N2CCn3c(nnc3C(F)(F)F)C2)CCN1c1c(C#N)cnc2ccc(Cl)cc12 (single isomer, unassigned) [Example 73b]
[C] N#Cc1cnc2ccc(Cl)cc2c1N1CCC(C(=O)N2CCn3cncc3C2)CC1 [Example 105]
[D] C[C@@H]1CN(c2c(C#N)cnc3cc(-c4ccccc4)ccc23)CC[C@@H]1C(=O)N1CCn2c(nnc2C(F)(F)F)C1 [Example 90]
Q: Sort by IC50, descending. Quick reminder: the answer is the labels in the order asked.
Ans: C, B, A, D

* * *

biological target: Human CYP8B1 (Homo sapiens, UniProt Q9UNU6); assay: Human CYP8B1 Liver Microsome Assay; conditions: Human CYP8B1 IC50, human liver microsomes; substrate 7a-hydroxy-4-cholesten-3-one, NADPH; RapidFire MS detection of 7α,12α-dihydroxy-4-cholesten-3-one
pIC50: −log10 of the molar value.
endpoint: pIC50

Below are worked cases with known answers.
compound: Cc1nc2ccc(Cl)cc2c(N2CC[C@H](C(=O)N3CCn4cc(C(F)(F)F)nc4C3)[C@H](C)C2)c1C#N [Example 99]
target-or-system: Human CYP8B1 (Homo sapiens, UniProt Q9UNU6)
pIC50: 7.28
//
compound: N#Cc1cnc2cc(C(F)(F)F)ccc2c1N1CCC(C(=O)N2CCn3c(nnc3C(F)(F)F)C2)CC1 [Example 43]
target-or-system: Human CYP8B1 (Homo sapiens, UniProt Q9UNU6)
pIC50: 8.20
//
compound: C[C@@H]1CN(c2c(C#N)cnc3cc(O)ccc23)CC[C@@H]1C(=O)N1CCn2c(nnc2C(F)(F)F)C1 [Example 5]
target-or-system: Human CYP8B1 (Homo sapiens, UniProt Q9UNU6)
pIC50: 8.85
//
compound: C[C@H]1CN(c2c(C#N)c(C(F)F)nc3ccc(Cl)cc23)CC[C@H]1C(=O)N1CCn2c(nnc2C(F)(F)F)C1 (single isomer, unassigned) [Example 57b]
target-or-system: Human CYP8B1 (Homo sapiens, UniProt Q9UNU6)
pIC50: 5.83
//
compound: C[C@@H]1CN(c2c(C#N)cnc3c(F)c(F)ccc23)CC[C@@H]1C(=O)N1CCn2c(nnc2C(F)(F)F)C1 [Example 8]
target-or-system: Human CYP8B1 (Homo sapiens, UniProt Q9UNU6)
pIC50: 8.89
//
compound: C[C@@H]1CN(c2c(C#N)cnc3cc(C(C)(F)F)ccc23)CC[C@@H]1C(=O)N1CCn2c(nnc2C(F)(F)F)C1 [Example 78]
target-or-system: Human CYP8B1 (Homo sapiens, UniProt Q9UNU6)
pIC50: 9.00
//
compound: C[C@@H]1CN(c2c(C#N)c[n+]([O-])c3cc(OCC4CC4)ccc23)CC[C@@H]1C(=O)N1CCn2c(nnc2C(F)(F)F)C1 [Example 71]
target-or-system: Human CYP8B1 (Homo sapiens, UniProt Q9UNU6)
pIC50: 9.27
//
compound: C[C@@H]1CN(c2c(C#N)cnc3ccc(Cl)cc23)CCN1C(=O)N1CCn2c(nnc2C(F)(F)F)C1 [Example 128]
target-or-system: Human CYP8B1 (Homo sapiens, UniProt Q9UNU6)
pIC50: 8.54

[1] CO[C@H]1CN(c2c(C#N)cnc3ccc(Cl)cc23)CCC1C(=O)N1CCn2c(nnc2C(F)(F)F)C1 (stereo in doubt) [Example 72d]
[2] COc1cccc2nc(C)c(C#N)c(N3CC[C@H](C(=O)N4CCn5c(nnc5C(F)(F)F)C4)[C@H](C)C3)c12 [Example 35]
Q: I need your help: which of the pair 1 , 2 has higher pIC50? Record your answer as the label of the chosen record.
Ans: 2

[a] CC1CC(C(=O)N2CCn3c(nnc3C(F)(F)F)C2)CCN1c1c(C#N)cnc2ccc(Cl)cc12 (single isomer, unassigned) [Example 73d]
[b] COc1ccc2c(N3CC[C@H](C(=O)N4CCn5c(nnc5C(F)(F)F)C4)[C@H](C)C3)c(C#N)cnc2c1 [Example 28]
Q: // task: argmin of pIC50 over [ a , b ] Response format: the label of the selected entry.
Ans: a
(a: 6.20, b: 9.21)
